Recorded measurements of Inhibition rate of epileptic seizure, one per entry
tested on: maximal electroshock seizure; test: Maximal electroshock seizure (MES) test on mice; assay type: in vivo; details: 100 mg/kg intragastric, 0.5 h after administration

{"COMPOUND": "NS(=O)(=O)NCc1noc2ccccc12", "Inhibition rate of epileptic seizure, %": 88.9}
{"COMPOUND": "CC1(C)O[C@@H]2[C@@H](CO[C@@]3(COS(N)(=O)=O)OC(C)(C)O[C@@H]23)O1 [Topiramate, reference compound]", "Inhibition rate of epileptic seizure, %": 37.5}
{"COMPOUND": "NS(=O)(=O)NCc1ccsc1Cl [Example 13, N-[(2-chloro-3-thienyl)methyl]-sulfamide]", "Inhibition rate of epileptic seizure, %": 37.5}
{"COMPOUND": "CN(C)S(=O)(=O)NCc1noc2ccccc12", "Inhibition rate of epileptic seizure, %": 44.4}
{"COMPOUND": "NS(=O)(=O)NCc1noc2cc(Cl)ccc12", "Inhibition rate of epileptic seizure, %": 66.7}
{"COMPOUND": "NS(=O)(=O)Cc1noc2ccccc12 [Zonisamide, reference compound]", "Inhibition rate of epileptic seizure, %": 33.3}
